Taken from PubChem BioAssay (NCATS).

Kindly supply the reported max response values for the records listed here.
# Test system: KB-3-1
# protocol.text: Cytotoxic Profiling of Annotated Libraries Using Quantitative High-Throughput Screening (AID 1296008); note: % is set by controls: 0 for no effect and ±100 for the full control effect; nearly all actives have a fitted effect of over 60% in size
# particulars: Five cell lines viability, CellTiter-Glo ATP luminescence, 48-72 h; stronger effect = lower value
Inconclusive results are not listed. Calls of active or inactive are those of the source. Calls come from the whole dose curve; as a rule, active = well fitted inhibition curve with a large enough effect; inconclusive = small, poorly fitted or top-dose-only effect; inactive = flat fitted curve, though single readings scatter.

input: Reported max response, compound COC(=O)C1=COC(C)C2CN3CCC4(C(=O)Nc5ccccc54)C3CC12 (configuration not stated) : ____
output: -8.2% (inactive)

input: Reported max response, compound CCC1CN2CCc3cc(OC)c(OC)cc3C2CC1CC1=NCCc2cc(O)c(OC)cc21 (configuration not stated) : ____
output: -7.09% (inactive)

input: Reported max response, compound COc1ccc(C23CCC(=O)C=C2N(C)CC3)cc1OC (configuration not stated) : ____
output: -13% (inactive)

input: Reported max response, compound C[C@]12CC[C@@H](O)C[C@@H]1CC[C@@H]1[C@@H]2CC[C@]2(C)C(=O)[C@@H](Br)C[C@@H]12 : ____
output: 9.47% (inactive)

input: Reported max response, compound O=C(CC1NCCC[C@H]1O)Cn1cnc2cc(Br)c(Cl)cc2c1=O (some centres not stated) : ____
output: -10.5% (inactive)

input: Reported max response, compound C[C@H]1CC[C@@H]2[C@@H](C)[C@H]3[C@H](C[C@H]4[C@@H]5CC=C6CC(O[C@@H]7O[C@H](CO)[C@@H](O)[C@H](O[C@@H]8O[C@H](CO)[C@@H](O)[C@H](O)[C@H]8O)[C@@H]7O[C@@H]7O[C@@H](C)[C@H](O)[C@@H](O)[C@H]7O)CC[C@]6(C)[C@H]5CC[C@]34C)N2C1 (some centres not stated) : ____
output: 2.33% (inactive)

input: Reported max response, compound CC(=O)O[C@@H]1[C@H]2CC[C@H]3[C@@](C)(O)[C@@H]4C[C@H](O)C(C)(C)[C@@]4(O)[C@H](O)C[C@@]13C[C@@]2(C)O : ____
output: 2.41% (inactive)

###

# Test system: Hek293T
# protocol.text: Primary qHTS to identify gynecologic anti-cancer compounds using libraries of approved drugs and bioactive compounds (AID 1345084); note: nearly all actives have a fitted effect of over 55% in size
# particulars: Gynecologic cancer cell panel viability, ATPlite luminescence, 48 h, control line for the selectivity index; series mostly up to 57.5 µM
Results filed as inconclusive are left out. Active and inactive are the calls of the source. The call rests on the fitted dose curve; in most records, active means well fitted cell-killing curve with a large enough effect; inconclusive means small, poorly fitted or top-dose-only effect, or effect the other way; inactive means flat fitted curve, though single readings scatter.
Select the matching outcome among Y = active, N = inactive

input: Could you please tell me the result logged for N#Cc1ccc(N2CCN(C(=O)COc3ccc4[nH]cc(CCN)c4c3)CC2)cc1 in this assay?
output: N

input: Could you please tell me the result logged for CC(=O)OC[C@]12C[C@H](O)C(C)=C[C@H]1O[C@@H]1[C@H](O)[C@@H](O)[C@@]2(C)[C@]12CO2 in this assay?
output: Y

input: Could you please tell me the result logged for COc1ccc2c(c1)c(CCN(C)C)cn2S(=O)(=O)c1ccccc1 in this assay?
output: N

input: Could you please tell me the result logged for C#CC1(O)CCC2C3CCC4=CC(=O)CCC4=C3C=CC21C (configuration not stated) in this assay?
output: N

input: Could you please tell me the result logged for CCC1=CC2CN3CCc4c([nH]c5ccccc45)[C@@](C(=O)OC)(C2)[C@@H]13 in this assay?
output: N

input: Could you please tell me the result logged for Clc1ccc([C@]23CNC[C@H]2C3)cc1Cl in this assay?
output: N

input: Could you please tell me the result logged for CN1C(=O)C(Cc2ccc3ccccc3c2)N=C(c2ccc(O)cc2)c2cc(Cl)ccc21 (configuration not stated) in this assay?
output: N

input: Could you please tell me the result logged for C[C@H]1CCC/C=C/C2C[C@H](O)C[C@H]2[C@H](O)/C=C/C(=O)O1 (some centres not stated) in this assay?
output: Y

input: Could you please tell me the result logged for Cc1cccc(NC(=O)N[C@H]2CN(C)c3ccccc3C(c3ccccc3)=N2)c1 in this assay?
output: N

input: Could you please tell me the result logged for C=C1C2(C)CC3C(C)(O)C4=CC(=O)OC(C)(C)C4=CCC3(C)C13C(=O)OC(C)C3(O)C2=O (configuration not stated) in this assay?
output: N

input: Could you please tell me the result logged for COc1ccc2c3c4n(c2c1)[C@@H](C=C(C)C)OOC(C)(C)C[C@@H]4N1C(=O)[C@@H]2CCCN2C(=O)[C@]1(O)[C@H]3OCC=C(C)C in this assay?
output: N

input: Could you please tell me the result logged for C=CC/C=C\C/C=C\CCCCCCCc1cc(O)cc(O)c1 in this assay?
output: N

input: Could you please tell me the result logged for CC(=O)OC[C@]12C[C@H](OC(=O)CC(C)C)C(C)=C[C@H]1O[C@@H]1[C@H](O)[C@@H](O)[C@@]2(C)[C@]12CO2 in this assay?
output: Y

input: Could you please tell me the result logged for C[C@H]1CN(Cc2ccc(CC(=O)N3CCC(Nc4cccc(F)c4)CC3)cc2)CCN1 in this assay?
output: N

input: Could you please tell me the result logged for CC1=CC2/C=C(\C)CCC(O)C(O)/C=C/C(=O)C23C(=O)NC(CC(C)C)C3C1C (configuration not stated) in this assay?
output: Y

input: Could you please tell me the result logged for CO/C1=C\C(C)=C\[C@@H](C)[C@@H](O)[C@@H](C)C/C(C)=C/C=C/[C@H](OC)[C@@H]([C@@H](C)[C@@H](O)[C@H](C)[C@@]2(O)C[C@@H](O)[C@H](C)[C@@H](C(C)C)O2)OC1=O in this assay?
output: Y

input: Could you please tell me the result logged for C[C@]12CC[C@@H](O)C[C@@H]1CC[C@@H]1[C@@H]2CC[C@]2(C)C(=O)[C@@H](Br)C[C@@H]12 in this assay?
output: N

###

# protocol.text: AP1 Signaling Pathway (AID 357);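 note: ME-180 reporter cells stimulated with EGF at its EC50 level; % is set by controls: 0 for no effect and ±100 for the full control effect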
# particulars: ME-180 (cervical carcinoma) AP-1-bla reporter, EGF-induced, beta-lactamase ratio, 5 h; series mostly up to 38 µM
Results filed as inconclusive are left out. The source made the active and inactive calls. Calls come from the whole dose curve; as a rule, active = well fitted curve in either direction with a large enough effect (not every such curve was filed as active); inconclusive = small, poorly fitted or top-dose-only effect, or another doubt; inactive = flat fitted curve, though single readings scatter.
endpoint.label: activity change, negative = inhibition

For orientation, consider the following solved cases.
[
  {
    "record.smiles": "C[C@H](N)Cc1c[nH]c2ccc(O)cc12",
    "activity change, negative = inhibition": "inactive"
  },
  {
    "record.smiles": "CN1C(=O)CCS(=O)(=O)[C@H]1c1ccc(Cl)cc1",
    "activity change, negative = inhibition": "inactive"
  },
  {
    "record.smiles": "COc1ccc(-n2nc(C(F)(F)F)cc2-c2ccc(Cl)cc2)cc1",
    "activity change, negative = inhibition": "inactive"
  },
  {
    "record.smiles": "N[C@H](C(=O)O)c1cc(=O)[nH]o1",
    "activity change, negative = inhibition": "inactive"
  }
]

input: Reported activity change, negative = inhibition, molecule Cc1o[nH]c(=O)c1C[C@H](N)C(=O)O : ____
output: inactive

input: Reported activity change, negative = inhibition, molecule CN(C(=O)Cc1ccc(Cl)c(Cl)c1)[C@@H](CN1CCCC1)c1cccc(OCC(=O)O)c1 : ____
output: inactive

###

# protocol.text: qHTS for Inhibitors of the Functional Ribonucleoprotein Complex (vRNP) of Lymphocytic Choriomeningitis Arenaviruses (LCMV): Viability assay - alamar blue signal for LCMV Primary Screen (AID 1347085); note: nearly all actives have a fitted effect of over 80% in size
# particulars: alamar blue viability counter-screen, LCMV vRNP screen cells; series mostly up to 57.5 µM
Records with an inconclusive call do not appear. The source made the active and inactive calls. Calls come from the whole dose curve; tested in HEK293 reporter line.
Select the matching outcome among class 1 (active), class 0 (inactive)

input: Could you please tell me the result logged for C=CC1=C(C(=O)O)N2C(=O)[C@@H](NC(=O)C(=NO)c3csc(N)n3)[C@H]2SC1 in this assay?
output: class 0

input: Could you please tell me the result logged for NCC(O)(CS(=O)(=O)O)c1ccc(Cl)cc1 (stereo not drawn) in this assay?
output: class 0

input: Could you please tell me the result logged for COc1ccc(C2(C#N)CCC(C(=O)O)CC2)cc1OC1CCCC1 (stereo not drawn) in this assay?
output: class 0

input: Could you please tell me the result logged for COc1cc(C(C)C)c2c(c1)S(=O)(=O)N(COc1cc(=O)n3cccc(OCCN4CCCCC4)c3n1)C2=O in this assay?
output: class 0

input: Could you please tell me the result logged for CC1C(=O)OC2C(O)C34C5CC(C(C)(C)C)C36C(OC(=O)C6O)OC4(C(=O)O5)C12O (stereo not drawn) in this assay?
output: class 0

input: Could you please tell me the result logged for CC(C)N(CCC(=O)c1ccc2ccccc2c1)Cc1ccccc1 in this assay?
output: class 0

input: Could you please tell me the result logged for C[C@@H]1OC(O[C@H]2[C@H](Oc3cc(O)c4c(=O)c(O)c(-c5ccc(O)cc5)oc4c3)O[C@H](CO)[C@@H](O)[C@@H]2O)[C@H](O)[C@H](O)[C@H]1O (stereo partly drawn) in this assay?
output: class 0

input: Could you please tell me the result logged for CC(=O)OCC(=O)[C@@]12OC(C)(C)O[C@H]1C[C@H]1[C@@H]3C[C@H](F)C4=CC(=O)C=C[C@]4(C)[C@@]3(F)[C@@H](O)C[C@@]12C in this assay?
output: class 0

input: Could you please tell me the result logged for O=C1O[C@@H](c2ccc(O)cc2)Cc2cccc(O)c21 in this assay?
output: class 0

input: Could you please tell me the result logged for O=C(O)c1cc(O)c2ccccc2c1O in this assay?
output: class 0

input: Could you please tell me the result logged for Cc1cnc(NC(=O)Nc2cc(Br)c(C)cc2OC[C@@H]2CNCCO2)cn1 in this assay?
output: class 1

input: Could you please tell me the result logged for Cn1c2c(c(=O)c3ccccc31)C[C@@H](O)C(C)(C)O2 in this assay?
output: class 0

input: Could you please tell me the result logged for O=C(O)CCCCC(CCSCc1ccccc1)SCc1ccccc1 (stereo not drawn) in this assay?
output: class 0

input: Could you please tell me the result logged for CC12CCC(=O)C=C1C(O)CC1C2CCC2(C)C1CCC2(O)C(=O)CO (stereo not drawn) in this assay?
output: class 0

input: Could you please tell me the result logged for Cc1ccc(-c2ccccc2)cc1 in this assay?
output: class 0

input: Could you please tell me the result logged for CCCCCCCCOC(C)=O in this assay?
output: class 0

input: Could you please tell me the result logged for OC[C@H]1O[C@@H](O[C@H]2[C@@H](O)[C@@](O)(CO)O[C@@H]2CO)[C@H](O)[C@@H](O)[C@@H]1O in this assay?
output: class 0

input: Could you please tell me the result logged for N#Cc1cc(NC(=O)Nc2nnc(-c3ccncc3)s2)ccc1-c1cn[nH]c1 in this assay?
output: class 1

input: Could you please tell me the result logged for C[C@H]1OC(=O)CC[C@@H]2[C@]1(C)CCC1[C@@]2(C)CC[C@@]2(C)C3CC(C)(C)CC[C@]3(CO)CC[C@]12C (stereo partly drawn) in this assay?
output: class 0

input: Could you please tell me the result logged for COc1cc(/C=C/C(=O)OC2CC3CCC2(C)C3(C)C)ccc1O (stereo not drawn) in this assay?
output: class 0

input: Could you please tell me the result logged for O=C(O)Cc1c[nH]c2ccc(O)cc12 in this assay?
output: class 0

input: Could you please tell me the result logged for N[C@H]1CONC1=O in this assay?
output: class 0

input: Could you please tell me the result logged for COc1cc2c(c(OC)c1OC)-c1c(cc3c(c1OC)OCO3)CC(C)C(C)C2 (stereo not drawn) in this assay?
output: class 0

input: Could you please tell me the result logged for COc1cc2c(CCNC(C)=O)c[nH]c2cc1Cl in this assay?
output: class 0

input: Could you please tell me the result logged for COC(=O)[C@H](NC(=O)c1cc(-c2ccccc2)nc2ccccc12)c1ccccc1 in this assay?
output: class 0

input: Could you please tell me the result logged for COC(=O)[C@H](CCCN=C(N)N)NS(=O)(=O)c1ccc(C)cc1 in this assay?
output: class 1

input: Could you please tell me the result logged for Nc1ccc(CCNc2ncnc3c2ncn3C2OC(CO)C(O)C2O)cc1 (stereo not drawn) in this assay?
output: class 0

input: Could you please tell me the result logged for C=C[C@@H]1CN2CC[C@@H]1C[C@H]2[C@H](O)c1ccnc2ccc(OC)cc12 in this assay?
output: class 0

input: Could you please tell me the result logged for CC(=O)O[C@@]12CO[C@H]1C[C@H](O)[C@@]1(C)C(=O)[C@H](O)C3=C(C)[C@@H](OC(=O)C(O)[C@@H](NC(=O)OC(C)(C)C)c4ccccc4)C[C@@](O)([C@@H](OC(=O)c4ccccc4)[C@@H]21)C3(C)C (stereo partly drawn) in this assay?
output: class 0

input: Could you please tell me the result logged for CC1(C)CCC[C@@](C)([C@H]2CC[C@]3(C)[C@@H]2[C@H](O)C[C@@H]2[C@@]4(C)CC[C@H](O)C(C)(C)[C@@H]4CC[C@]23C)O1 in this assay?
output: class 0

input: Could you please tell me the result logged for O=C(C=CC=Cc1ccc2c(c1)OCO2)N1CCCCC1 in this assay?
output: class 0

input: Could you please tell me the result logged for COC(=O)c1ccc(=O)c2nc3/c(=C/O)c(O)cc(=O)c3[nH]c12 in this assay?
output: class 0

input: Could you please tell me the result logged for O=C1NC(=O)/C(=C/c2ccc3c(c2)OC(F)(F)O3)S1 in this assay?
output: class 0

input: Could you please tell me the result logged for Cc1cnc(Nc2cccc(CN3CCOCC3)c2)nc1Nc1cccc(S(=O)(=O)NC(C)(C)C)c1 in this assay?
output: class 0

input: Could you please tell me the result logged for CCCCC#Cc1nc(NC)c2ncn([C@@H]3O[C@H](CO)[C@@H](O)[C@H]3O)c2n1 in this assay?
output: class 0

input: Could you please tell me the result logged for COc1cc2c(c(OC)c1CC=C(C)C)C[C@H](c1ccc(O)cc1O)CO2 in this assay?
output: class 0

input: Could you please tell me the result logged for C[C@@H]1C(=O)O[C@H]2CC34[C@H]5C[C@@H](C(C)(C)C)C36[C@H](OC(=O)[C@@H]6O)O[C@@]4(C(=O)O5)[C@]21O (stereo partly drawn) in this assay?
output: class 0

input: Could you please tell me the result logged for C/C=C(\C)C(=O)O[C@H](c1cc2ccc(=O)oc2cc1OC)[C@@H](O)C(C)(C)O in this assay?
output: class 0
